System: Escherichia coli TOP10
Test: shrunken log2 fold change of peptide-encoding DNA abundance (4.5 h post-induction vs induction); higher = less antimicrobial activity (less host growth inhibition)
Conditions: time post-induction: 4.5 h; library: site-saturation at positions 5, 18, 19, 20
Experimental Endpoint: shrunken log2 fold change
The answer should be written as a number, with no unit following it.

Example entries begin here.
• RRIRRRPPRLPRPRPRPKLYPRP = 0.174
• RRIRGRPPRLPRPRPRPFGFPRP = 0.828
• RRIRFRPPRLPRPRPRPKHKPRP = -0.265
• RRIRARPPRLPRPRPRPDFMPRP = 0.466
• RRIRIRPPRLPRPRPRPEPEPRP = 0.421

### Prompt Item: RRIRIRPPRLPRPRPRPAHGPRP Test system: Escherichia coli TOP10 Read-out: shrunken log2 fold change Value: ?
### Response 0.188

### Prompt Checklist item: shrunken log2 fold change tested on Escherichia coli TOP10, entry RRIRRRPPRLPRPRPRPVPPPRP , value?
### Response 0.77

### Prompt What shrunken log2 fold change appears in the records for this sequence with Escherichia coli TOP10? RRIRTRPPRLPRPRPRPRCEPRP
### Response 0.117

### Prompt GET /values?readout=shrunken log2 fold change&system=Escherichia coli TOP10&item= RRIRFRPPRLPRPRPRPMWTPRP
### Response -0.37

### Prompt Observed shrunken log2 fold change on Escherichia coli TOP10 for RRIRGRPPRLPRPRPRPYFGPRP , please.
### Response -0.335

### Prompt Record RRIRWRPPRLPRPRPRPIPIPRP : what is its shrunken log2 fold change with Escherichia coli TOP10?
### Response -0.12

### Prompt Form entry - test system: Escherichia coli TOP10; read-out: shrunken log2 fold change; sequence: RRIRARPPRLPRPRPRPLDKPRP
### Response 0.332

### Prompt Reported shrunken log2 fold change for Escherichia coli TOP10, given RRIRLRPPRLPRPRPRPCDQPRP ?
### Response -0.016

### Prompt Could you share what shrunken log2 fold change was measured for RRIRRRPPRLPRPRPRPKNHPRP , tested on Escherichia coli TOP10?
### Response -0.0297

### Prompt Please state recorded shrunken log2 fold change (tested on Escherichia coli TOP10) of RRIRIRPPRLPRPRPRPRWTPRP
### Response 0.0809

====

Tested on: Escherichia coli TOP10
Assay: shrunken log2 fold change of peptide-encoding DNA abundance (4.5 h post-induction vs induction); higher = less antimicrobial activity (less host growth inhibition)
Conditions: time post-induction: 4.5 h; library: site-saturation at positions 5, 18, 19, 20
Recorded shrunken log2 fold change, one value per entry.
Provide a numeric answer; units are not to be included.

Completed entries (count: 2):
• RRIRPRPPRLPRPRPRPCDTPRP = -0.193
• RRIRWRPPRLPRPRPRPISMPRP = -0.209

### Prompt For RRIRRRPPRLPRPRPRPDQNPRP , what is its reported shrunken log2 fold change?
### Response 0.327

### Prompt # input sequence: RRIRDRPPRLPRPRPRPCLVPRP ; wanted: its shrunken log2 fold change
### Response 0.148

====

Test system: Escherichia coli TOP10;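 further: peptides expressed intracellularly from a pBAD plasmid library in pooled LB shake-flask culture, induced with 0.3% L-arabinose, DNA abundance read by NGS, three biological replicates, DESeq2 with apeglm shrinkage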
Assay: shrunken log2 fold change of peptide-encoding DNA abundance (4.5 h post-induction vs induction); higher = less antimicrobial activity (less host growth inhibition)
Settings: time post-induction: 4.5 h; library: site-saturation at positions 5, 18, 19, 20
Experimental Endpoint: shrunken log2 fold change
Provide a numeric answer; units are not to be included.

### Prompt Lookup: shrunken log2 fold change / Escherichia coli TOP10 / RRIRWRPPRLPRPRPRPTKAPRP
### Response 0.122

### Prompt Given the entry RRIRWRPPRLPRPRPRPMCAPRP , what shrunken log2 fold change was observed with Escherichia coli TOP10?
### Response 0.713

### Prompt Short answer please: shrunken log2 fold change, Escherichia coli TOP10, entry RRIRSRPPRLPRPRPRPLMDPRP
### Response -0.00235
